These measurements were taken from PubChem BioAssay.

Test: probe aNOTCH2 binding on compound microarray – biochemical, small-molecule microarray, 635/667 nm fluorescence, primary screen (AID 1121);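 note: score merges feature fluorescence read at 667 nm with its signal to noise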
Conditions: higher = more signal
Entries and their composite z-score values follow.

{"molecule": "C=C[C@H](OC)[C@@H](OC(=O)Nc1ccc(SC)cc1)c1ccc(OCCO)cc1", "composite z-score": -0.0956}
{"molecule": "COCCOC(=O)N1C(=O)[C@@]2(c3cc(C#CCC(C(=O)OC)C(=O)OC)ccc31)[C@H](c1ccccc1OCCO)N1[C@H](c3ccccc3)[C@H](c3ccccc3)OC(=O)[C@H]1[C@@H]2C(=O)Nc1nc2ccccc2s1", "composite z-score": -0.0048}
{"molecule": "CC1CC/C=C\\[C@H]2OC34C=CCN(Cn5nnc6ccccc65)C(=O)[C@H]3N(CCCO)C(=O)[C@@H]4C2C(=O)O1 (stereo not given in full)", "composite z-score": -0.115}
{"molecule": "C=C(COC)C(=O)CC[C@H](OC(=O)c1cccnc1)c1ccccc1OCCO", "composite z-score": -0.0846}
{"molecule": "COc1cc(CO)cc(I)c1O[C@H]1C=C(C(=O)NCCO)C[C@@H](N(CCc2cccc(F)c2)C(=O)CCC2CCCC2)[C@@H]1O", "composite z-score": -0.0596}
{"molecule": "Cc1ccc(C(C)CC(O)C2C=CC3C(=O)NC(=O)C3N2Nc2ccccn2)o1 (stereo not given)", "composite z-score": -0.106}
{"molecule": "CN1C(=O)C2C=CC(C(O)C3=C[C@H]4C[C@@H](C3)C4(C)C)N(Nc3ccc([N+](=O)[O-])cc3[N+](=O)[O-])C2C1=O (stereo not given in full)", "composite z-score": 0.186}
{"molecule": "C=C(CCCC)C(=O)CC[C@H](OC(C)=O)c1ccc(CO)o1", "composite z-score": -0.117}
{"molecule": "CN(C)CCCC[C@@H]1NC(=O)[C@H]2C[C@@H](C(=O)NCCCCCNC(=O)CS)[C@@H](c3ccc(O)cc3)N2C1=O", "composite z-score": -0.127}
{"molecule": "C[C@H]1C2[C@H](Cc3ccccc3)NC(=O)[C@]23C(=O)N[C@H](Cc2ccccc2)C(=O)N[C@H](Cc2ccccc2)C(=O)NC/C=C/CCC/C=C/C3[C@@H]2O[C@]12C (stereo not given in full)", "composite z-score": -0.115}
{"molecule": "Cc1ccccc1/C=C/C=O", "composite z-score": -0.171}
{"molecule": "O=C(CS)NCCCCCCNC(=O)[C@H]1C[C@H]2C(=O)N3CCC[C@H]3C(=O)N2[C@H]1c1ccc(O)cc1", "composite z-score": -0.147}
{"molecule": "O=C1O[C@@H](c2ccccc2)[C@@H](c2ccccc2)N2[C@@H](c3ccc(O)cc3)[C@]3(C(=O)Nc4ccc(C#CCCO)cc43)[C@@H](C(=O)O)[C@H]12", "composite z-score": 0.734}
{"molecule": "C/C=C/[C@H](CCn1cc([C@H](O)c2ccccc2)nn1)[Si](C)(C)c1ccc(OC)cc1", "composite z-score": -0.181}
{"molecule": "O=C1OCCC/C=C\\[C@H]2OC34C=CCN(Cn5nnc6ccccc65)C(=O)[C@H]3N(CCCO)C(=O)[C@@H]4C12 (stereo not given in full)", "composite z-score": -0.112}
{"molecule": "C=C(COC)C(=O)CC[C@@H](OC(=O)c1ccccc1-c1ccccc1C(=O)O)c1ccc(CO)o1", "composite z-score": -0.0817}
{"molecule": "COC(=O)[C@@]1(Cc2ccccc2)[C@H]2c3cc(C(=O)N(C)C)n(Cc4cc(F)c(F)c(F)c4)c3C[C@H]2CN1C(=O)c1ccccc1", "composite z-score": 0.289}
{"molecule": "C=CC[C@@]1(C(=O)OC)N=C(c2ccc(OCCCO)cc2)O[C@@H]1c1ccccc1CN=[N+]=[N-]", "composite z-score": -0.102}
{"molecule": "C=C(/C(=C/C[C@@H](OC(=O)c1ccncc1)c1ccc(CO)o1)c1cc(C(=O)OC)ccc1OC)C(C)C", "composite z-score": -0.109}
{"molecule": "COc1ccc(CCNC(=O)[C@@]2(C)c3ccccc3C(=O)N(Cc3ccccc3)[C@H]2c2ccc(CO)cc2)cc1", "composite z-score": -0.116}
{"molecule": "O=C1OCC=C[C@H]2OC34C=CCN(Cc5ccccc5)C(=O)[C@H]3N(CCCO)C(=O)[C@@H]4[C@@H]12 (stereo not given in full)", "composite z-score": 0.0753}
{"molecule": "C=CCCN(CC#C[C@H]1Oc2ccccc2S(=O)(=O)N2CCC[C@@H]12)S(=O)(=O)c1ccc(C)cc1", "composite z-score": -0.102}
{"molecule": "C=CCN1Cc2ccccc2C[C@]2(N=C(c3ccc(OCCCO)cc3)O[C@@H]2c2ccccc2)C1=O", "composite z-score": 0.101}
{"molecule": "C=CCNC(=O)[C@H]1[C@@H]2C(=O)O[C@@H](c3ccccc3)[C@@H](c3ccccc3)N2[C@@H](c2ccc(OCCO)cc2)[C@]12C(=O)N(C(=O)OCCOC)c1ccc(C#CC3(O)CCCCCC3)cc12", "composite z-score": 0.308}
{"molecule": "C[N+](C)(C)CCCCNC(=O)[C@H]1C[C@H]2C(=O)N3CCC[C@H]3C(=O)N2[C@H]1c1ccc(O)cc1", "composite z-score": -0.0449}
{"molecule": "CCCCCN1CC=CC23O[C@@H]4C=CCCOC(=O)C4[C@H]2C(=O)N(CCCO)[C@@H]3C1=O (stereo not given in full)", "composite z-score": -0.155}
{"molecule": "C=CCC(OC(C)=O)[C@@H]1[C@@H](N(Cc2ccc(-c3cccc(C(F)(F)F)c3)o2)C(=O)Cc2ccc(OC)cc2)c2cc(OCCCO)ccc2N1C(=O)Cc1ccc(OC)cc1 (stereo not given in full)", "composite z-score": -0.193}
{"molecule": "O=C1NC(=O)C2C1C=CC(C(O)c1cccs1)N2Nc1ccccn1 (stereo not given)", "composite z-score": -0.0826}
{"molecule": "O=C1c2ccccc2[C@](Cc2ccccc2I)(C(=O)O)[C@H](c2ccc(CO)cc2)N1Cc1ccccc1C(F)(F)F", "composite z-score": -0.106}
{"molecule": "CN1C(=O)C2C(C1=O)C1C=C(c3ccc(CO)cc3)C2C(C2CC2)N1Cc1cc2c(cc1Br)OCO2 (stereo not given)", "composite z-score": 0.109}

* * *

Biological target: Calmodulin-1 (Homo sapiens) (UniProt P0DP23)
Experiment: small molecules binding calmodulin-1 with EGTA – biochemical, small-molecule microarray, Cy5-labelled CALM1, profiling panel (AID 1111);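 note: labelled calmodulin applied in Tris saline Tween buffer holding calcium plus EGTA and DTT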
Settings: Cy5-CALM1 binding fluorescence, higher = more signal
# reported composite z-score; entries follow

{"compound": "COC(=O)[C@@]1(Cc2ccc(OC)cc2)[C@H]2c3cc(C(=O)N(C)C)n(CCSCCO)c3C[C@H]2CN1C(=O)c1ccccc1", "assay-target": "Calmodulin-1 (Homo sapiens) (UniProt P0DP23)", "composite z-score": 2.02}
{"compound": "C=C(COC)C(=O)CC[C@H](OC(=O)c1cccnc1)c1ccccc1OCCO", "assay-target": "Calmodulin-1 (Homo sapiens) (UniProt P0DP23)", "composite z-score": -0.0382}
{"compound": "NC(=O)[C@]1(Cc2ccccc2)N=C(c2ccc(OCCCO)cc2)O[C@@H]1c1ccccc1", "assay-target": "Calmodulin-1 (Homo sapiens) (UniProt P0DP23)", "composite z-score": 1.35}
{"compound": "O=C1O[C@@H](c2ccccc2)[C@@H](c2ccccc2)N2[C@@H](c3ccccc3OCCO)[C@]3(C(=O)Nc4ccc(C#CC5(O)CCCCCC5)cc43)[C@@H](C(=O)NC[C@H](O)c3ccccc3)[C@H]12", "assay-target": "Calmodulin-1 (Homo sapiens) (UniProt P0DP23)", "composite z-score": 0.819}
{"compound": "O=C1OCCC=C[C@H]2OC34C=CCN(c5ccc6ccccc6c5)C(=O)[C@H]3N(CCCCCCO)C(=O)[C@@H]4C12 (stereo partly drawn)", "assay-target": "Calmodulin-1 (Homo sapiens) (UniProt P0DP23)", "composite z-score": -0.611}
{"compound": "CC(C)OC(=O)C1=CCC(c2cccc(Cl)c2)O1 (stereo not drawn)", "assay-target": "Calmodulin-1 (Homo sapiens) (UniProt P0DP23)", "composite z-score": 0.222}
{"compound": "CN(C)CCCC[C@@H]1NC(=O)[C@@H]2C[C@H](C(=O)NCCCCCN)[C@H](c3ccc(O)cc3)N2C1=O", "assay-target": "Calmodulin-1 (Homo sapiens) (UniProt P0DP23)", "composite z-score": 1.99}
{"compound": "O=C1C2C=CC(C(O)c3cccc4ccccc34)N(n3cnnc3)C2C(=O)N1Cc1ccccc1 (stereo not drawn)", "assay-target": "Calmodulin-1 (Homo sapiens) (UniProt P0DP23)", "composite z-score": 0.197}

* * *

System: wheat germ agglutinin (Triticum aestivum), Alexa647-labelled
Experiment: Alexa647-WGA lectin binding to printed small molecules – biochemical, small-molecule microarray, 635/667 nm fluorescence, artefact control for SMM control-protein annotation, profiling panel (AID 1140);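 note: score merges 667 nm feature emission with signal to noise over triplicate slides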
Conditions: WGA-A647 binding, 635 nm fluorescence, higher = more signal

{"compound": "O=P(NCC1(CC2(c3ccccc3)CO2)CC1)(c1ccccc1)c1ccccc1 (centres undefined)", "assay-target": "wheat germ agglutinin (Triticum aestivum), Alexa647-labelled", "composite z-score": -0.0073}
{"compound": "C=C(CCCC)/C(=C/C[C@H](OC(C)=O)c1ccc(CO)o1)c1cc(C(=O)OC)ccc1OC", "assay-target": "wheat germ agglutinin (Triticum aestivum), Alexa647-labelled", "composite z-score": 0.789}
{"compound": "[N-]=[N+]=NCc1ccccc1C[C@]1(C(=O)NCc2ccccc2)COC(c2ccc(OCCCO)cc2)=N1", "assay-target": "wheat germ agglutinin (Triticum aestivum), Alexa647-labelled", "composite z-score": 0.762}
{"compound": "C=CC[C@@]1(C(=O)NCCN2CCOCC2)N=C(c2ccc(OCCCO)cc2)O[C@@H]1c1ccccc1CN=[N+]=[N-]", "assay-target": "wheat germ agglutinin (Triticum aestivum), Alexa647-labelled", "composite z-score": 1}
